- tgt: BaF3 TELJAK3 cells (Homo sapiens, UniProt P52333)
- Construct: fused on or other part: TEL (ETV6) N-terminal part, coding nucleotides 1-487, serves as the oligomerising partner; It is fused through a Sal I site to the JAK3 kinase domain and expressed from pTRE2 in BaF3 cells bearing pTET-off; P41212 (Transcription factor ETV6)
- measurement.description: Cellular screening, BaF3 TEL:JAK3 cells, Alamar Blue
- Assay type: cell-based
- experimental.conditions: 40 hr, read-out: BafT_J3 IC50_nM
Recorded GI50 values for a group of molecules are listed next.

Examples with their reported GI50 follow.
- molecule: "C=CC(=O)Nc1ccc(Sc2nc(Nc3ccc(N4CCCC(O)C4)cc3)ncc2C)cc1 (centres unmarked)"
  GI50: "< 1 µM"
- molecule: "C=CC(=O)NCc1ccc(Sc2ccnc(Nc3ccc(N4CCOCC4)cc3)n2)cc1"
  GI50: "< 1 µM"
- molecule: "CC(=O)Nc1ccc(Sc2nc(Nc3ccc(N4CCOCC4)cc3)ncc2C)cc1"
  GI50: "> 20 µM"
- molecule: "C=CC(=O)Nc1ccc(Sc2nc(Nc3ccc(N4CCOCC4)cc3)ncc2Cl)cc1"
  GI50: "< 1 µM"
- molecule: "C=CC(=O)Nc1ccc(Sc2ccnc(Nc3ccc(S(=O)(=O)N4CCOCC4)cc3)n2)cc1"
  GI50: "< 5 µM"

Lookup: Quick one: GI50 of C=CC(=O)N(C)c1ccc(Sc2nc(Nc3ccc(N4CCOCC4)cc3)ncc2Br)cc1 ?
Found: < 1 µM

Lookup: Please give the result for Cc1cnc(Nc2ccc(N3CCOCC3)cc2)nc1Sc1ccc(NC(=O)/C=C/Cl)cc1 too.
Found: < 5 µM

Lookup: # repeat for O=C(Nc1ccc(Sc2ccnc(Nc3ccc(N4CCOCC4)cc3)n2)cc1)C1CC1(F)Cl (centres unmarked)
Found: < 1 µM

====

- tgt: human JAK2 (Homo sapiens)
- Sequence (O60674 849-1124 limits assumed): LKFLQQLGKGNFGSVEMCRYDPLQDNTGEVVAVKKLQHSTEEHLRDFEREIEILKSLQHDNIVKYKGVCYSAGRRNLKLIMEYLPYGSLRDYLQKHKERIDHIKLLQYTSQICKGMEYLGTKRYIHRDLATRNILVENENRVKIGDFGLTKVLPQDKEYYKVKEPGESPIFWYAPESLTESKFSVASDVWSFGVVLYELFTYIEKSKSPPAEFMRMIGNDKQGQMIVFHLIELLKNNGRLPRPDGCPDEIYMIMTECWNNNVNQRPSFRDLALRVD
Listed next: entries and their corresponding IC50.

- chem.smiles: "Cc1cnc(Nc2ccc(N3CCOCC3)cc2)nc1Sc1ccc(C=O)cc1"
  tgt: "human JAK2 (Homo sapiens)"
  IC50: "> 1000 nM"
- chem.smiles: "CCOC(=O)c1nccn1Cc1ccc(Sc2ccnc(Nc3ccc(N4CCOCC4)cc3)n2)cc1"
  tgt: "human JAK2 (Homo sapiens)"
  IC50: "> 1000 nM"

Lookup: Using the record for Cc1cnc(Nc2ccc(N3CCOCC3)cc2)nc1Sc1ccc(NC(=O)CCC(=O)O)cc1 , report its IC50.
Found: < 500 nM

Lookup: What do we get for C=CC(=O)Nc1ccc(Sc2ccnc(Nc3ccc(C#N)cc3)n2)cc1 ?
Found: > 1000 nM

====

- tgt: BaF3 TELJAK3 cells (Homo sapiens, UniProt P52333)
- Construct: fused on or other part: TEL (ETV6) N-terminal part, coding nucleotides 1-487, serves as the oligomerising partner; It is fused through a Sal I site to the JAK3 kinase domain and expressed from pTRE2 in BaF3 cells bearing pTET-off; P41212 (Transcription factor ETV6)
- Sequence (P52333 1-1124): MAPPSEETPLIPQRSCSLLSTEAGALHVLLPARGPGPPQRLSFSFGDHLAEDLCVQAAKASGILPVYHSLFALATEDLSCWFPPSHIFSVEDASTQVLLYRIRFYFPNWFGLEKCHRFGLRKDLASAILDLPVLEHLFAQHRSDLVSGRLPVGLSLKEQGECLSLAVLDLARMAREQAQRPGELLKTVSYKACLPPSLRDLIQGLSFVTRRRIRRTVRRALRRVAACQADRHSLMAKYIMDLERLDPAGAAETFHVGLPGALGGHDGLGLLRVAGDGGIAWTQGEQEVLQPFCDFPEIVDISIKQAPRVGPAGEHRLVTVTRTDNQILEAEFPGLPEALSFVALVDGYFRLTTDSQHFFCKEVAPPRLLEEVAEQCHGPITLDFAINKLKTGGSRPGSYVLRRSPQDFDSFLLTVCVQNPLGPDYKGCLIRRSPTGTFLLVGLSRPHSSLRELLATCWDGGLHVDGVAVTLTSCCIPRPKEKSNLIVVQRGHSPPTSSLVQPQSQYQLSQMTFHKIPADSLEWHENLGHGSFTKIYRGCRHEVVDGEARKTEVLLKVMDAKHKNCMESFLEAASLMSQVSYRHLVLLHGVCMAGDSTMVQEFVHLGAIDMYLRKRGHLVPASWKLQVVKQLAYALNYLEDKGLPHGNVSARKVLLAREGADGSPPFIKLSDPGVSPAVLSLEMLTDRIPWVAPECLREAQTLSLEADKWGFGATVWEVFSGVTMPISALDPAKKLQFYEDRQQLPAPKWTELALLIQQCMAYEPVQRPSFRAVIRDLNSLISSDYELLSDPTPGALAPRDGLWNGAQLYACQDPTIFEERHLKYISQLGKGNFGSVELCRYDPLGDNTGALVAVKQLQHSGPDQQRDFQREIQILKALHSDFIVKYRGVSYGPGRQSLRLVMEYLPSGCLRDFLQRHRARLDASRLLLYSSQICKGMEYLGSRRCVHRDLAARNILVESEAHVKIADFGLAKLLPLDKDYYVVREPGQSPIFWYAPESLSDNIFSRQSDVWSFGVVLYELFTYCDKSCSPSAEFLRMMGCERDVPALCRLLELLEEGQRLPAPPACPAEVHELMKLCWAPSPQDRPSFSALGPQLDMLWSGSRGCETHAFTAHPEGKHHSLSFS
- measurement.description: Cellular screening, BaF3 TEL:JAK3 cells, Alamar Blue
- Type: cell-based
- experimental.conditions: 40 hr, read-out: BafT_J3 IC50_nM
measured.quantity: GI50

Solved cases (3 shown):
- chem.smiles: "C=CC(=O)Nc1ccc(Sc2ccnc(Nc3ccc(OC)c(O)c3)n2)cc1"
  readout.value: "< 1 µM"
- chem.smiles: "N#Cc1nnnn1Cc1ccc(Sc2ccnc(Nc3ccc(N4CCOCC4)cc3)n2)cc1"
  readout.value: "< 20 µM"
- chem.smiles: "Cc1cnc(Nc2ccc(N3CCOCC3)cc2)nc1Sc1ccc(NC(=O)COCC(=O)O)cc1"
  readout.value: "> 20 µM"

Next compound, please.
Lookup: Give GI50 (BaF3 TELJAK3 cells (Homo sapiens, UniProt P52333)) of the following compound: N#CCC(=O)Nc1cccc(Sc2ccnc(Nc3ccc(N4CCOCC4)cc3)n2)c1
Found: < 20 µM
